Entry source: patent US20260124312A1

Kindly supply the reported koff values for the records listed here.
target: Human EphA2 (in house, 0.95 mol biotin/monomer) (Human) (UniProt P29317); assay: SPR (Biacore), biotinylated human EphA2 on streptavidin chip
Sequence (P29317 25-534 limits assumed): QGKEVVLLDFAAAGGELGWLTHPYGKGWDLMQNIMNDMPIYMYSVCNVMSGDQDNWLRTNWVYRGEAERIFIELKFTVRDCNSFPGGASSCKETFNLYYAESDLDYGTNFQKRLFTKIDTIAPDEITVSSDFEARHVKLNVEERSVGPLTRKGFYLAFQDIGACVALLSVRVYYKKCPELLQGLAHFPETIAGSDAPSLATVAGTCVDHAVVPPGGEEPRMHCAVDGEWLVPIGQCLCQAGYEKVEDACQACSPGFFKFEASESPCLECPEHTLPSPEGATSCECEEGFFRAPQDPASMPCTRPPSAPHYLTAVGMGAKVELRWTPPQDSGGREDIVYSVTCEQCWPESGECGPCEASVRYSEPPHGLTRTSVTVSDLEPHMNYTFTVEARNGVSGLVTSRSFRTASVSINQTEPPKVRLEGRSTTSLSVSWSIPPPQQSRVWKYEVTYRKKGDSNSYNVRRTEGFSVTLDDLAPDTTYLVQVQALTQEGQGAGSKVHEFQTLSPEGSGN
*1 amine or outer side, *2 acyl side, *3 side chain or, on linkers, in order; H or OH if unused. Bridges are numbered along the chain shown (N, C = ends). Where no end group is shown, it is not given here. [ ]: non-standard residue; d: D form. The star is where a group is joined. DM1‑SS‑ = DM1-SS- (SPDB) linker/toxin, COc1cc2cc(c1Cl)N(C)C(=O)C[C@H](OC(=O)[C@H](C)N(C)C(=O)CCSSCCCC(=O)*)[C@]1(C)O[C@H]1[C@H](C)[C@@H]1C[C@@](O)(NC(=O)O1)[C@H](OC)/C=C/C=C(\C)C2; TATA = O=C(CC[*:1])N1CN(C(=O)CC[*:2])CN(C(=O)CC[*:3])C1; DM1‑SS(SO3H)‑ = DM1-SS(SO3H)- (SO3H-SPDB) linker/toxin; DM1‑SS‑(Me)‑ = DM1-SS-(Me)- (SPP) linker/toxin; PABC = O=C(OCc1ccc(N[*:1])cc1)[*:2]; Glutaryl = O=C(CCCC(=O)[*:2])[*:1]; hArg = N=C(N)NCCCC[C@H](N)C(=O)O; Cit = NC(=O)NCCC[C@H](N)C(=O)O; βAla = NCCC(=O)O; Sar = CNCC(=O)O
State the result as a value with its unit after it.

So, {MMAE-PABC-Cit-Val-Glutaryl}-[βAla][Sar][Sar][Sar][Sar][Sar][Sar][Sar][Sar][Sar][Sar]A[hArg]DCPLVNPLCLHPGWTC (linker 15-22-29 via TATA; not fully specified (C-terminus)) [BCY6033] ? Its koff was 0.00343 s⁻¹

So, {DM1‑SS(SO3H)‑}-[βAla][Sar][Sar][Sar][Sar][Sar][Sar][Sar][Sar][Sar][Sar]A[hArg]DCPLVNPLCLHPGWTC (linker 15-22-29 via TATA; not fully specified (C-terminus)) [BCY6082] ? Its koff was 0.00242 s⁻¹

So, {DM1‑SS‑(Me)‑}-[βAla][Sar][Sar][Sar][Sar][Sar][Sar][Sar][Sar][Sar][Sar]A[hArg]DCPLVNPLCLHPGWTC (linker 15-22-29 via TATA; not fully specified (C-terminus)) [BCY6032] ? Its koff was 0.00527 s⁻¹

So, {MMAE-PABC-Cit-Trp-Glutaryl}-[βAla][Sar][Sar][Sar][Sar][Sar][Sar][Sar][Sar][Sar][Sar]A[hArg]DCPLVNPLCLHPGWTC (linker 15-22-29 via TATA; not fully specified (C-terminus)) [BCY6034] ? Its koff was 0.00365 s⁻¹

So, {DM1‑SS‑}-[βAla][Sar][Sar][Sar][Sar][Sar][Sar][Sar][Sar][Sar][Sar]A[hArg]DCPLVNPLCLHPGWTC (linker 15-22-29 via TATA; not fully specified (C-terminus)) [BCY6031] ? Its koff was 0.00495 s⁻¹
